Each recorded value in this set is attributed to ChEMBL document CHEMBL5260851.

# method: Displacement of [3H]-choline from choline transporter in human PC-3 cells preincubated with [3H]-choline for 15 mins followed by compound addition and measured after 60 mins
# Assay type: cell-based
pIC50: −log10 of the molar value.
Quick rule: pIC50 of at least 5 means true, below that means false.

- smiles_representation: "C[N+](C)(CCCCO)CCc1ccc(I)s1"
  answer_label: "false"
- smiles_representation: "C[N+](C)(CCO)CCCCCCOc1cccnc1I"
  answer_label: "true"
- smiles_representation: "COc1c(I)cc(CC[N+](C)(C)CCO)cc1I"
  answer_label: "false"

Now let's try a different one.
Inquiry: Entry OCCN1CC[N+](CCO)(Cc2ccccc2I)CC1 : is its pIC50 no less than 5?
Reply text: false

###

# method: Cytotoxicity against human BJ cells
# Type: toxicity, cell-based
observable: IC50

Solved cases below.
- smiles_representation: "C[N+](C)(CCO)CCCCCCOc1cccc(I)c1"
  IC50: "> 50 µM"
- smiles_representation: "C[N+](C)(CCO)CCc1ccc(I)s1"
  IC50: "> 50 µM"

Inquiry: Record request: IC50 value, item C[N+](C)(CCO)CCc1cccc(I)c1
Reply text: > 50 µM
